tested on: SK-MEL-2 melanoma; assay: NCI-60 one-dose screen, 48 h (100 = growth as untreated, 0 = no growth, -100 = all killed); settings: 10 µM
The panel holds about 83,000 compounds, 20% with a hit somewhere; the sample as a whole holds those more often.
endpoint: growth (%)

>>> numericresult("CC(C)(C)c1cc(NC(=O)Cc2ccc(-c3cnc4cc(-c5cnn(CCN6CCOCC6)c5)ccc4n3)cc2)no1")
-8.73
>>> numericresult("CCc1ccccc1-n1c(N)c(C#N)c(-c2ccc(OC)c(OC)c2)c(C#N)c1=O")
108
>>> numericresult("CC1(C)OB(c2ccc(Cn3cc(F)c(=O)[nH]c3=O)cc2)OC1(C)C")
113
>>> numericresult("Cc1[nH]c(-c2nc3ccccc3[nH]2)c(C)c1C(=O)NC(C)C1CCCCC1 (stereo unspecified)")
87.2
>>> numericresult("CCCCCCCCCCCCCCCc1ccc(Cl)c(O)c1Cl (tested in a mixture with another compound)")
88.2
>>> numericresult("CC#C[C@]1(O)CC[C@H]2[C@@H]3CCC4=CC(=O)CCC4=C3[C@@H](c3ccc4c(c3)OCO4)C[C@@]21C")
71.1

----------
Each entry below carries its recorded growth.
tested on: OVCAR-5 ovarian; assay: NCI-60 one-dose screen, 48 h (100 = growth as untreated, 0 = no growth, -100 = all killed); details: 10 µM
The panel holds about 83,000 compounds, 20% with a hit somewhere; the sample as a whole holds those more often.
endpoint: growth (%)

>>> numericresult("CC1(C)OB(c2ccc(Cn3cc(F)c(=O)[nH]c3=O)cc2)OC1(C)C")
97.5
>>> numericresult("Cc1[nH]c(-c2nc3ccccc3[nH]2)c(C)c1C(=O)NC(C)C1CCCCC1 (stereo unspecified)")
94
>>> numericresult("O=C(O)c1sccc1O")
102
>>> numericresult("CCc1ccccc1-n1c(N)c(C#N)c(-c2ccc(OC)c(OC)c2)c(C#N)c1=O")
107
>>> numericresult("CCCCCCCCCCCCCCCc1ccc(Cl)c(O)c1Cl (tested in a mixture with another compound)")
106
>>> numericresult("CC#C[C@]1(O)CC[C@H]2[C@@H]3CCC4=CC(=O)CCC4=C3[C@@H](c3ccc4c(c3)OCO4)C[C@@]21C")
109

----------
system: DU-145 prostate; test: NCI-60 one-dose screen, 48 h (100 = growth as untreated, 0 = no growth, -100 = all killed); conditions: 10 µM unless noted
Compounds without any hit were thinned out: in the full panel of roughly 83,000, 20% have a hit.
endpoint: growth (%)

>>> numericresult("CC(/C=N/N1C(=O)c2ccccc2C1=O)c1ccccc1 (stereo unspecified)")
115
>>> numericresult("O=C1c2c(O)cc(O)cc2OC(c2ccc(O)c(O)c2)C1O (stereo unspecified)")
132
>>> numericresult("CN(C)c1ccc(C(Cc2ccc3ccccc3n2)Cc2ccc3ccccc3n2)cc1")
81.9
>>> numericresult("COc1ccc2ccccc2c1/C=N/N1CCCCC1")
108
>>> numericresult("Cn1cnc([N+](=O)[O-])c1Sc1ncnc2nc[nH]c12")
44.5
>>> numericresult("CCOC(=O)C(CNc1ccccc1)C(=O)OCC")
109

----------
test system: A498 renal; experiment: NCI-60 one-dose screen, 48 h; details: 10 µM unless noted
About 83,000 compounds went through this panel and 20% of them were active in at least one assay; those are over-represented in the sample as a whole. Activity calls are given as the source filed them. How the source made its calls: active means growth percent below 10; inactive means the rest.
Possible outcomes: true (active), false (inactive)

>>> classlabel("Cc1ccc(-c2noc(C)n2)cc1")
"false"
>>> classlabel("Nc1ccccc1SC1CC(=O)N(c2cccc3ccccc23)C1=O (stereo not drawn)")
"false"
>>> classlabel("Cc1[nH]c(-c2nc3ccccc3[nH]2)c(C)c1C(=O)NC(C)C1CCCCC1 (stereo not drawn)")
"true"
>>> classlabel("CC(O)(CC(=O)CC(=O)c1ccccc1)c1ccccc1 (stereo not drawn)")
"false"
>>> classlabel("NC(=O)c1ccccc1OCC(O)CO (stereo not drawn)")
"false"
>>> classlabel("Cc1c(Cl)cccc1NCN1C(=O)c2ccccc2C1=O")
"false"
>>> classlabel("CC(O)Cn1cnc2c1c(=O)n(C)c(=O)n2C (stereo not drawn)")
"false"
>>> classlabel("CC1=NN(c2ccccc2)C(=O)C1C(=O)c1ccccc1 (stereo not drawn)")
"false"
>>> classlabel("CCCCCCCCCCCCCCCCOc1ccc(C)cc1")
"false"
>>> classlabel("Clc1nc(Oc2ccccc2)nc(-c2cn(-c3ccccc3)c3ccccc23)n1")
"false"
>>> classlabel("N#CCCOc1ccccc1")
"false"
>>> classlabel("CCCCCCCCCCCCOc1ccccc1C=O")
"false"
>>> classlabel("O=C1NC(=O)C2(CCc3ccccc32)N1 (stereo not drawn)")
"false"

----------
System: A498 renal
Assay: NCI-60 one-dose screen, 48 h (100 = growth as untreated, 0 = no growth, -100 = all killed)
Settings: 10 µM unless noted
Experimental: Growth inhibition of the A498 human tumor cell line is measured as a screen for anti-cancer activity. Cells are grown in 96 well plates and exposed to the test compound for 48 hours. Compounds are tested at a single concentration, which is 10^-5 M for most compounds. The reported endpoint is percent growth (GI% or GIPRCNT), where numbers from 0 - 100% represent growth inhibition, and numbers from -100% - 0 represent cell death. For example, a value of 40 represents 60% growth inhibition. […]
About 83,000 compounds went through this panel and 20% of them were active in at least one assay; those are over-represented in the sample as a whole.
Decide using growth alone. Strictly below 90%: class 1. Equal to or above 90%: class 0.

>>> classlabel("CNC(=O)c1ccc(C)c(-n2c(C)cc(OCc3ccc(F)cc3F)c(Br)c2=O)c1")
"class 1"
>>> classlabel("Cc1ccc(S(=O)(=O)NCN2C(=O)c3ccccc3C2=O)cc1")
"class 0"
>>> classlabel("O=C(Nc1cccc(Cl)c1)c1cc2ccccc2cc1O")
"class 1"
>>> classlabel("O=C(Nc1ccc([N+](=O)[O-])cc1Cl)c1cc(Cl)ccc1O")
"class 1"
>>> classlabel("CCN(CC)CCCC(C)Nc1cnc(C(=O)Nc2cc(F)cc3cccnc23)cn1 (configuration not stated)")
"class 1"
>>> classlabel("c1ccc(N(c2ccccc2)c2ccccc2)cc1")
"class 0"
>>> classlabel("Nc1n[nH]c(=S)n1-c1ccc(Cl)cc1")
"class 0"
>>> classlabel("O=S1(=O)CC(Br)C(Br)C1 (configuration not stated)")
"class 0"
>>> classlabel("CN(Cc1ccccc1)Cc1ccccc1")
"class 0"
>>> classlabel("COc1ccc(-c2cn[nH]c2-c2cc(OC)c(OC)c(OC)c2)cc1N")
"class 1"
>>> classlabel("COc1ccc2c(=O)cc(-c3ccccc3)[nH]c2c1")
"class 1"
>>> classlabel("NC(=S)N/N=C(\\c1ccc(Br)cc1)C1CC1")
"class 0"
>>> classlabel("CC1CCCc2sc3nc(NNC(=O)c4cnccn4)n(-c4ccccc4)c(=O)c3c21 (configuration not stated)")
"class 1"
>>> classlabel("O=C(O)CSCc1nc2ccccc2[nH]1")
"class 0"
>>> classlabel("CC1=C(/C=C/C(C)=C/C=C/C(C)=C/C(=O)Nc2ccc(O)cc2)C(C)(C)CCC1")
"class 1"
>>> classlabel("Cc1nnc(NC/C=C/c2ccccc2)s1")
"class 0"
>>> classlabel("Cc1ccc(-c2noc(CC(=O)c3ccc([N+](=O)[O-])cc3)n2)cc1")
"class 1"
>>> classlabel("O=C(O)c1cc(C(=O)O)cc([N+](=O)[O-])c1")
"class 0"
>>> classlabel("O=C1CCN(Cc2ccccc2)C(=S)N1")
"class 0"
>>> classlabel("NC(=S)NS(=O)(=O)c1ccc(N)cc1")
"class 1"
>>> classlabel("Nc1ccc2[nH]c(-c3ccccc3)cc(=O)c2c1")
"class 1"

----------
tested on: HCT-116 colon; assay: NCI-60 one-dose screen, 48 h (100 = growth as untreated, 0 = no growth, -100 = all killed); conditions: 10 µM unless noted
The panel holds about 83,000 compounds, 20% with a hit somewhere; the sample as a whole holds those more often. Calls of active or inactive are those of the source. The calls were made as follows: active = growth percent below 10; inactive = the rest.
endpoint: growth

>>> result("OCc1ccccn1")
"104% (inactive)"
>>> result("O=C(O)c1sccc1O")
"15.5% [100 µM] (inactive)"
>>> result("CCOC(=O)c1sc(N)nc1-c1ccccc1")
"96.7% (inactive)"
>>> result("c1ccc2cc(C[n+]3ccn(Cc4ccc5ccccc5n4)c3)ccc2c1")
"2.66% (active)"
>>> result("N#CCCOc1ccccc1")
"106% (inactive)"
>>> result("CCOc1ccc2c(S(=O)(=O)O)cccc2c1[N+](=O)[O-]")
"101% (inactive)"
>>> result("O=C(O)CSCc1nc2ccccc2[nH]1")
"107% (inactive)"
>>> result("COc1cc(C(=O)N/N=C/c2ccc(N(C)C)cc2)cc(OC)c1OC")
"10.1% (inactive)"
>>> result("O=[N+]([O-])c1ccc(-n2[nH]nnc2=S)cc1")
"101% (inactive)"
>>> result("CC(=O)C(/C=N/C(N)=O)=C(/C)O")
"105% (inactive)"
>>> result("O=C(N/N=C/c1ccccc1)N/N=C/c1ccccc1")
"107% (inactive)"
>>> result("N#C/C(=C1C=C/C(=N/O)C(Br)=C/1)c1ccccc1")
"-14.7% (active)"
>>> result("O=C(CCc1ccc(O)cc1)N/N=C/c1cc(Br)ccc1O")
"46.7% (inactive)"

Source: PubChem BioAssay (NCI)
